Reference source for all entries: patent US12441768B2

Consider the following molecules and their measured viability readings.
conditions: % Viability non-Wnt responsive cells; also: test concentration or dose not given here
Where a SMILES comes first, the peptide text is derived from it.
PROPERTY_MEASURED: viability (%)

{"MOLECULE": "CC[C@H](C)[C@@H]1NC(=O)[C@H](CC(C)C)NC(=O)[C@H](Cc2ccccc2)NC(=O)[C@H](Cc2c[nH]c3ccccc23)NC(=O)[C@@H](NC(C)=O)CCCCNC(=O)CC[C@@H](C(=O)O)NC(=O)[C@H](Cc2c[nH]c3ccccc23)NC(=O)[C@H](Cc2ccccc2)NC(=O)[C@H](CO)NC1=O [compound 199] (HELM PEPTIDE1{[ac].K.W.F.L.I.S.F.W.E}$PEPTIDE1,PEPTIDE1,2:R3-10:R3$$$V2.0)", "PROPERTY_MEASURED": "viability", "NUMBER": 89.8}
{"MOLECULE": "CC[C@H](C)[C@@H]1NC(=O)[C@H](CC(C)C)NC(=O)[C@H](Cc2ccccc2)NC(=O)[C@H](Cc2c[nH]c3ccccc23)NC(=O)[C@@H](N)CC(=O)NCCCC[C@@H](C(=O)NCC(=O)O)NC(=O)[C@H](Cc2c[nH]c3ccccc23)NC(=O)[C@H](Cc2ccccc2)NC(=O)[C@H](CS)NC1=O [compound 176] (HELM PEPTIDE1{D.W.F.L.I.C.F.W.K.G}$PEPTIDE1,PEPTIDE1,1:R3-9:R3$$$V2.0)", "PROPERTY_MEASURED": "viability", "NUMBER": 109}
{"MOLECULE": "CC[C@H](C)[C@H](NC(=O)[C@H](Cc1c[nH]c2ccccc12)NC(=O)[C@@H](N)CCSC)C(=O)NC(C)(CC(C)C)C(=O)N[C@H](C(=O)N[C@@H](CS)C(=O)N[C@@H](Cc1ccccc1)C(=O)N[C@@H](Cc1c[nH]c2ccccc12)C(=O)NCC(=O)O)[C@@H](C)CC (stereo partly drawn) [compound 130] (HELM PEPTIDE1{M.W.I.[CC(C)CC(C)(N[*:1])C(=O)[*:2]].I.C.F.W.G}$$$$V2.0)", "PROPERTY_MEASURED": "viability", "NUMBER": 98.3}

----------
details: % Viability non-Wnt responsive cells
Where a SMILES comes first, the peptide text is derived from it.

{"COMPOUND": "CC[C@H](C)[C@@H]1NC(=O)[C@H](CC(C)C)NC(=O)[C@H](Cc2ccccc2)NC(=O)[C@H](Cc2c[nH]c3ccccc23)NC(=O)[C@@H](N)CCCCNC(=O)CC[C@@H](C(=O)O)NC(=O)[C@H](Cc2c[nH]c3ccccc23)NC(=O)[C@H](Cc2ccccc2)NC(=O)[C@H](CS)NC1=O [compound 179] (HELM PEPTIDE1{K.W.F.L.I.C.F.W.E}$PEPTIDE1,PEPTIDE1,1:R3-9:R3$$$V2.0)", "viability / %": 90.9}
{"COMPOUND": "CC[C@H](C)[C@H](NC(=O)[C@H](CC(C)C)NC(=O)[C@@H](NC(=O)[C@H](Cc1c[nH]c2ccccc12)NC(=O)[C@H](CCSC)NC(=O)[C@@H](N)CCCCN)[C@@H](C)CC)C(=O)N[C@@H](CS)C(=O)N[C@@H](Cc1ccccc1)C(=O)N[C@@H](Cc1c[nH]c2ccccc12)C(=O)NCC(=O)O [compound 113] (H-KMWILICFWG-OH)", "viability / %": 102}
{"COMPOUND": "CC[C@H](C)[C@H](NC(=O)[C@H](CC(C)C)NC(=O)[C@@H](NC(=O)[C@H](Cc1c[nH]c2ccccc12)NC(=O)[C@H](CCSC)NC(=O)[C@@H](N)CCCCN)[C@@H](C)CC)C(=O)N[C@@H](CO)C(=O)N[C@@H](Cc1ccccc1)C(=O)N[C@@H](Cc1c[nH]c2ccccc12)C(=O)NCC(=O)O [compound 122] (H-KMWILISFWG-OH)", "viability / %": 113}
{"COMPOUND": "CC[C@H](C)[C@H](NC(=O)[C@H](CC(C)C)NC(=O)[C@H](Cc1ccccc1)NC(=O)[C@H](Cc1c[nH]c2ccccc12)NC(=O)[C@H](Cc1c[nH]c2ccccc12)NC(=O)[C@H](CCCNC(=N)N)NC(=O)[C@H](CO)NC(=O)[C@@H](N)CCCCN)C(=O)N[C@@H](CO)C(=O)N[C@@H](Cc1ccccc1)C(=O)N[C@@H](Cc1c[nH]c2ccccc12)C(N)=O [compound 95] (H-KSRWWFLISFW-NH2)", "viability / %": 109}
{"COMPOUND": "CC[C@H](C)[C@H](NC(=O)[C@H](CC(C)C)NC(=O)[C@H](Cc1ccccc1)NC(=O)[C@H](Cc1c[nH]c2ccccc12)NC(C)=O)C(=O)N[C@@H](C)C(=O)N[C@@H](Cc1ccccc1)C(=O)N[C@@H](Cc1c[nH]c2ccccc12)C(=O)NCC(=O)O [compound 196] (Ac-WFLIAFWG-OH)", "viability / %": 105}
{"COMPOUND": "CC[C@H](C)[C@@H]1NC(=O)[C@H](CC(C)C)NC(=O)[C@H](Cc2ccccc2)NC(=O)[C@H](Cc2c[nH]c3ccccc23)NC(=O)[C@H](CCSC)NC(=O)CCCCCNC(=O)C[C@@H](C(=O)O)NC(=O)[C@H](Cc2c[nH]c3ccccc23)NC(=O)[C@H](Cc2ccccc2)NC(=O)[C@H](CS)NC1=O [compound 189] (HELM PEPTIDE1{[O=C(CCCCCN[*:1])[*:2]].M.W.F.L.I.C.F.W.D}$PEPTIDE1,PEPTIDE1,1:R1-10:R3$$$V2.0)", "viability / %": 99.5}
